B1: r11_951_TrROS_Hall (parent)
chain: KKKYVIKVYFEDTGKEVEIEAESKEEALEAAKRLAEELGLKIKKVEIYP

# Variants of: B1
# Assay Overview: folding stability dG (cDNA display proteolysis); higher = more stable
# Measurement Conditions: PBS, room temperature
Assay Readout: folding stability dG

mutation_code=P49K experimental_value="4.5 kcal/mol"
mutation_code=L28V experimental_value="4.51 kcal/mol"
mutation_code=V17I experimental_value="4.4 kcal/mol"
mutation_code=I6T experimental_value="3.59 kcal/mol"
mutation_code=K7I experimental_value="4.11 kcal/mol"
mutation_code=V5H experimental_value="4.32 kcal/mol"
mutation_code=A21V experimental_value="4.45 kcal/mol"
mutation_code=L28C experimental_value="4.12 kcal/mol"
mutation_code=E22W experimental_value="4.64 kcal/mol"
mutation_code=G14C experimental_value="4.36 kcal/mol"
mutation_code=I19V experimental_value="4.19 kcal/mol"
mutation_code=E36M experimental_value="4.66 kcal/mol"
mutation_code=Y9A experimental_value="3.91 kcal/mol"
mutation_code=G39W experimental_value="3.5 kcal/mol"
mutation_code=D12C experimental_value="4.38 kcal/mol"
mutation_code=A30G experimental_value="4.4 kcal/mol"
mutation_code=S23Q experimental_value="3.89 kcal/mol"
mutation_code=V8H experimental_value="1.38 kcal/mol"
mutation_code=E26R experimental_value="4.39 kcal/mol"
mutation_code=A21D experimental_value="3.72 kcal/mol"
mutation_code=L28S experimental_value="4.2 kcal/mol"
mutation_code=I19Q experimental_value="3.59 kcal/mol"
mutation_code=K7M experimental_value="4.1 kcal/mol"
mutation_code=Y48P experimental_value="4.09 kcal/mol"
mutation_code=E22P experimental_value="4.4 kcal/mol"
mutation_code=E36V experimental_value="4.66 kcal/mol"
mutation_code=G39S experimental_value="4.26 kcal/mol"
mutation_code=K3M experimental_value="4.59 kcal/mol"
mutation_code=A27R experimental_value="1.78 kcal/mol"
mutation_code=K1Y experimental_value="4.52 kcal/mol"
mutation_code=I6W experimental_value="4.67 kcal/mol"

Measured values drawn from the MegaScale stability set (Tsuboyama et al. 2023) for this set.
